# Test system: 11 clinically relevant bacterial pathogens
# Assay type: cell-based
# condition_details: Supplementary Dataset 2; against the 11 pathogens tested
Peptide text beside a SMILES is read from it.
experimental_readout: Active or Inactive

>  <compound>
CC[C@H](C)[C@H](NC(=O)[C@H](CC(C)C)NC(=O)[C@H](CCCNC(=N)N)NC(=O)[C@H](Cc1c[nH]c2ccccc12)NC(=O)[C@H](CC(C)C)NC(=O)[C@@H](NC(=O)[C@H](CCCNC(=N)N)NC(=O)[C@H](CCC(N)=O)NC(=O)[C@H](Cc1ccc(O)cc1)NC(=O)[C@H](CC(C)C)NC(=O)[C@@H](N)CCCCN)[C@@H](C)CC)C(=O)N[C@@H](CO)C(=O)N[C@@H](CCC(=O)O)C(=O)N[C@@H](CC(C)C)C(=O)O [Equusin-3] (H-KLYQRILWRLISEL-OH; N-terminus and C-terminus assumed)

>  <reported>
Active

$$$$
>  <compound>
CC[C@H](C)[C@H](N)C(=O)N[C@@H](CC(C)C)C(=O)N[C@@H](CC(C)C)C(=O)N[C@H](C(=O)N[C@H](C(=O)N[C@@H](C)C(=O)N[C@H](C(=O)N[C@@H](C)C(=O)N[C@H](C(=O)N[C@@H](CCCCN)C(=O)N[C@@H](CC(C)C)C(=O)NCC(=O)N[C@@H](CC(C)C)C(=O)O)[C@@H](C)CC)[C@@H](C)CC)[C@@H](C)O)[C@@H](C)O [Ararin-1] (H-ILLTTAIAIKLGL-OH; N-terminus and C-terminus assumed)

>  <reported>
Active

$$$$

* * *

# Test system: E. faecium ATCC 700221 (vancomycin-resistant strain)
# Assay type: cell-based, Enterococcus faecium
# condition_details: ATCC 700221, 20 h
# Procedure: The following Gram-negative bacteria were used in our study: A. baumannii ATCC 19606, E. coli ATCC 11775, E. coli AIC221 (E. coli MG1655 phnE_2::FRT), E. coli AIC222 (E. coli MG1655 pmrA53 phnE_2::FRT (colistin resistant)), K. pneumoniae ATCC 13883, P. aeruginosa PAO1 and P. aeruginosa PA14. […] The in vitro antimicrobial activity of the peptides was assessed by using the broth microdilution assay. […] The optical density of the plates was measured at 600 nm using a spectrophotometer. […]
Peptide text beside a SMILES is read from it.
experimental_readout: Minimal inhibitory concentration, E. faecium ATCC700221-VRE (µM)
The answer is to be given in µM; state only the numeric part.

// worked examples, Minimal inhibitory concentration, E. faecium ATCC700221-VRE included
>  <compound>
CC(C)C[C@H](NC(=O)[C@H](CC(C)C)NC(=O)[C@@H](NC(=O)[C@H](CCCNC(=N)N)NC(=O)[C@H](C)NC(=O)[C@H](Cc1ccccc1)NC(=O)[C@H](CCCNC(=N)N)NC(=O)[C@H](CO)NC(=O)[C@H](Cc1c[nH]c2ccccc12)NC(=O)[C@H](CCCNC(=N)N)NC(=O)[C@H](CC(C)C)NC(=O)[C@H](CCCCN)NC(=O)[C@H](CC(C)C)NC(=O)[C@@H](N)Cc1ccccc1)C(C)C)C(=O)O [Equusin-1] (H-FLKLRWSRFARVLL-OH; N-terminus and C-terminus assumed)

>  <reported>
1

$$$$
>  <compound>
CC[C@H](C)[C@H](NC(=O)[C@H](CC(C)C)NC(=O)[C@H](CCCNC(=N)N)NC(=O)[C@H](Cc1c[nH]c2ccccc12)NC(=O)[C@H](CC(C)C)NC(=O)[C@@H](NC(=O)[C@H](CCCNC(=N)N)NC(=O)[C@H](CCC(N)=O)NC(=O)[C@H](Cc1ccc(O)cc1)NC(=O)[C@H](CC(C)C)NC(=O)[C@@H](N)CCCCN)[C@@H](C)CC)C(=O)N[C@@H](CO)C(=O)N[C@@H](CCC(=O)O)C(=O)N[C@@H](CC(C)C)C(=O)O [Equusin-3] (H-KLYQRILWRLISEL-OH; N-terminus and C-terminus assumed)

>  <reported>
8

$$$$
>  <compound>
CC[C@H](C)[C@H](NC(=O)[C@@H](N)CC(C)C)C(=O)N[C@H](C(=O)N[C@@H](CS)C(=O)N[C@@H](Cc1ccccc1)C(=O)N[C@@H](Cc1ccccc1)C(=O)N[C@@H](CCCNC(=N)N)C(=O)N[C@@H](CCC(N)=O)C(=O)N[C@@H](CC(C)C)C(=O)N[C@@H](CCCCN)C(=O)N[C@@H](Cc1ccccc1)C(=O)N[C@@H](Cc1c[nH]cn1)C(=O)N[C@@H](Cc1ccccc1)C(=O)O)C(C)C [Megalocerin-1] (H-LIVCFFRQLKFHF-OH; N-terminus and C-terminus assumed)

>  <reported>
8

$$$$
>  <compound>
CC[C@H](C)[C@H](NC(=O)[C@H](CCCCN)NC(=O)[C@H](CO)NC(=O)[C@H](CC(N)=O)NC(=O)[C@H](Cc1ccccc1)NC(=O)[C@H](Cc1c[nH]cn1)NC(=O)[C@H](Cc1ccccc1)NC(=O)[C@@H](N)Cc1c[nH]c2ccccc12)C(=O)N[C@@H](CC(C)C)C(=O)N[C@@H](CC(C)C)C(=O)N[C@@H](CC(C)C)C(=O)N[C@H](C(=O)NCC(=O)N[C@@H](CC(C)C)C(=O)O)[C@@H](C)O [Mylodonin-1] (H-WFHFNSKILLLTGL-OH; N-terminus and C-terminus assumed)

>  <reported>
8

$$$$
>  <compound>
CC[C@H](C)[C@H](NC(=O)[C@@H](NC(=O)[C@H](Cc1c[nH]c2ccccc12)NC(=O)[C@H](CCCCN)NC(=O)[C@@H](N)CCCCN)C(C)C)C(=O)N[C@@H](CCCCN)C(=O)N[C@@H](CO)C(=O)N[C@H](C(=O)N[C@H](C(=O)N[C@@H](Cc1ccccc1)C(=O)N[C@@H](Cc1ccccc1)C(=O)N[C@@H](CCCCN)C(=O)O)C(C)C)C(C)C [Hesperelin-2] (H-KKWVIKSVVFFK-OH; N-terminus and C-terminus assumed)

>  <reported>
8

$$$$
>  <compound>
CC[C@H](C)[C@H](NC(=O)[C@H](Cc1ccccc1)NC(=O)[C@H](CC(N)=O)NC(=O)[C@@H](NC(=O)[C@@H](NC(=O)[C@H](Cc1c[nH]cn1)NC(=O)[C@@H](N)CC(C)C)[C@@H](C)O)[C@@H](C)CC)C(=O)N[C@H](C(=O)N[C@@H](CCCCN)C(=O)N[C@@H](CO)C(=O)N[C@@H](CC(C)C)C(=O)N[C@@H](CC(C)C)C(=O)N[C@@H](CC(C)C)C(=O)O)[C@@H](C)CC [Bisonin-1] (H-LHTINFIIKSLLL-OH; N-terminus and C-terminus assumed)

>  <reported>
16

$$$$
>  <compound>
CC[C@H](C)[C@H](NC(=O)[C@H](CCCCN)NC(=O)[C@@H](NC(=O)[C@H](Cc1c[nH]c2ccccc12)NC(=O)[C@@H](N)CCCCN)[C@@H](C)O)C(=O)N[C@@H](Cc1ccc(O)cc1)C(=O)N[C@@H](CC(C)C)C(=O)N1CCC[C@H]1C(=O)N[C@@H](CC(C)C)C(=O)N[C@@H](CC(C)C)C(=O)N[C@@H](CC(C)C)C(=O)N1CCC[C@H]1C(=O)N[C@@H](CC(C)C)C(=O)O [Bisonin-2] (H-KWTKIYLPLLLPL-OH; N-terminus and C-terminus assumed)

>  <reported>
8

$$$$
>  <compound>
CC[C@H](C)[C@H](N)C(=O)N[C@@H](Cc1ccccc1)C(=O)N[C@@H](CC(C)C)C(=O)N[C@@H](Cc1c[nH]cn1)C(=O)N[C@@H](CC(C)C)C(=O)N[C@@H](CCCCN)C(=O)N[C@H](C(=O)N[C@@H](CC(C)C)C(=O)N[C@@H](CCCCN)C(=O)N[C@H](C(=O)N[C@H](C(=O)N[C@@H](CCCNC(=N)N)C(=O)N[C@@H](CC(C)C)C(=O)N[C@@H](CC(C)C)C(=O)O)[C@@H](C)CC)[C@@H](C)CC)[C@@H](C)CC [Elephasin-2] (H-IFLHLKILKIIRLL-OH; N-terminus and C-terminus assumed)

>  <reported>
1

$$$$

Now turn to the next compound.
Form field: reported Minimal inhibitory concentration, E. faecium ATCC700221-VRE of CC[C@H](C)[C@H](NC(=O)[C@@H](NC(=O)[C@H](CCSC)NC(=O)[C@@H](N)Cc1c[nH]c2ccccc12)[C@@H](C)O)C(=O)N[C@@H](Cc1c[nH]cn1)C(=O)N[C@@H](C)C(=O)N[C@@H](CC(C)C)C(=O)N[C@@H](CCCCN)C(=O)N[C@@H](CC(C)C)C(=O)N[C@@H](CO)C(=O)N[C@@H](CC(C)C)C(=O)N[C@@H](CO)C(=O)N[C@@H](Cc1ccccc1)C(=O)N[C@@H](CCCCN)C(=O)N[C@@H](CC(C)C)C(=O)O [Mammutin-1] (H-WMTIHALKLSLSFKL-OH; N-terminus and C-terminus assumed)
2
